Reported values: Ki for UniProtKB Q92731, one per item.
Sequence (Q92731 whole entry): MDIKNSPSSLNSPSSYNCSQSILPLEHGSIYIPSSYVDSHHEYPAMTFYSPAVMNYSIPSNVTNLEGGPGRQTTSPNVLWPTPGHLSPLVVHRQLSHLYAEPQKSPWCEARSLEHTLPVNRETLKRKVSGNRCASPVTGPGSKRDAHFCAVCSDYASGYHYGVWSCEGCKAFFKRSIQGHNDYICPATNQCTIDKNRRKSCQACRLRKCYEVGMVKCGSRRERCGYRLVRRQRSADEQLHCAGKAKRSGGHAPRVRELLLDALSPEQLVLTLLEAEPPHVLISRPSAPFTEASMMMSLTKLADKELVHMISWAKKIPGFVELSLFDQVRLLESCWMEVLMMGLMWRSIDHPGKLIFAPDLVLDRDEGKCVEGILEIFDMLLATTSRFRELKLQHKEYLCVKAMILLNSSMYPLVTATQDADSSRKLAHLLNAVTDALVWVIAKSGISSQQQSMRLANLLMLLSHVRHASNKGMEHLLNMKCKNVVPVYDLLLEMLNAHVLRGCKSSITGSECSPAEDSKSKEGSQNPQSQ
Please provide the amount together with its unit, number first.

compound: Cc1cc(O)c2c(c1)C(=O)c1cc(O)cc(O)c1C2=O
target.entity: UniProtKB Q92731
Ki: 1.5 µM

We now examine a further compound.
Item: Cc1cc(O)c2c(c1)C(=O)c1cc(O)cc(O[C@@H]3O[C@H](CO)[C@@H](O)[C@H](O)[C@H]3O)c1C2=O [EMODIN 8-O-BETA-D-GLUCOPYRANOSIDE] Test system: UniProtKB Q92731 Read-out: Ki Value: ? 18 µM
